Source of measurements: paper PMC7878837

- method_notes: Permeability test (Papp) across hiPSC-derived enterocyte-like cell monolayer
- Type: in vitro ADME
- experimental_conditions: human, D30 of differentiation, M3-2 medium, 37°C 2 h, n = 4; read-out: RPChiPS771 d30 Papp Mean ± SD
Examples of molecules with documented Papp at 2 h follow.

{"molecule": "C[C@H]1O[C@@H](O[C@H]2[C@@H](O)C[C@H](O[C@H]3[C@@H](O)C[C@H](O[C@H]4CC[C@@]5(C)[C@H](CC[C@@H]6[C@@H]5C[C@@H](O)[C@]5(C)[C@@H](C7=CC(=O)OC7)CC[C@]65O)C4)O[C@@H]3C)O[C@@H]2C)C[C@H](O)[C@@H]1O", "Papp at 2 h / ×10⁻⁶ cm/s": 5.18}
{"molecule": "NC(N)=Nc1nc(CSCCC(N)=NS(N)(=O)=O)cs1", "Papp at 2 h / ×10⁻⁶ cm/s": 7.42}
{"molecule": "Cc1cc(=O)n(-c2ccccc2)n1C [antipyrine]", "Papp at 2 h / ×10⁻⁶ cm/s": 41.9}
{"molecule": "CCN1CCCC1CNC(=O)c1cc(S(N)(=O)=O)ccc1OC (centres unmarked) [sulpiride]", "Papp at 2 h / ×10⁻⁶ cm/s": 8.39}
{"molecule": "CNC(=C[N+](=O)[O-])NCCSCc1ccc(CN(C)C)o1", "Papp at 2 h / ×10⁻⁶ cm/s": 8.3}
